- Assay info: Aqueous solubility, Japanese Pharmacopoeia Second Fluid (pH 6.8)
- Format: physicochemical
- Measurement setup: Japanese Pharmacopoeia Second Fluid (pH 6.8)
Square brackets hold non-standard residues; d marks the D form. Peptide text beside a SMILES is read from it. Gly(N-CH2-oxan-4-yl) = O=C(O)CNCC1CCOCC1; NCyclohexylmethylGly = O=C(O)CNCC1CCCCC1; NMeL = CN[C@@H](CC(C)C)C(=O)O; NMeA = CN[C@@H](C)C(=O)O; NEtG = CCNCC(=O)O
A collection of compounds and their measured Aq. Sol.
// units = mg/mL; emit number, no label

Record excerpt, results attached:
Compound	U	Aq. Sol.
CCN1CC(=O)N[C@@H](CC(C)C)C(=O)N(C)[C@@H](C)C(=O)N[C@@H](CC(C)C)C(=O)N2CCC[C@@H]2C(=O)N(CC2CCCCC2)CC(=O)N[C@@H](CC(C)C)C(=O)N(C)[C@@H](C)C(=O)N[C@@H](Cc2ccccc2)C(=O)N2CCC[C@@H]2C1=O [Compound A08] (cyclo(F[dP][NEtG]L[NMeA]L[dP][NCyclohexylmethylGly]L[NMeA]))	mg/mL	0.070
CCN1CC(=O)N[C@@H](CC(C)C)C(=O)N(C)[C@@H](C)C(=O)N[C@@H](CC(C)C)C(=O)N2CCC[C@@H]2C(=O)N(CC2CCOCC2)CC(=O)N[C@@H](CC(C)C)C(=O)N(C)[C@@H](C)C(=O)N[C@@H](Cc2ccccc2)C(=O)N2CCC[C@@H]2C1=O [Compound A09] (cyclo([NEtG]L[NMeA]L[dP][Gly(N-CH2-oxan-4-yl)]L[NMeA]F[dP]))	mg/mL	0.600
CCN1CC(=O)N[C@@H](CC(C)C)C(=O)N(C)[C@@H](C)C(=O)N[C@@H](CC(C)C)C(=O)N2CCC[C@@H]2C(=O)N(CC2CCOCC2)CC(=O)N[C@@H](CC(C)C)C(=O)N(C)[C@@H](C)C(=O)N[C@@H](C)C(=O)N2CCC[C@@H]2C1=O [Compound A03] (cyclo([NEtG]L[NMeA]L[dP][Gly(N-CH2-oxan-4-yl)]L[NMeA]A[dP]))	mg/mL	1.900
CCN1CC(=O)N[C@@H](CC(C)C)C(=O)N2CCC[C@@H]2C(=O)N(C)[C@@H](CC(C)C)C(=O)N[C@@H](C)C(=O)N(CC2CCOCC2)CC(=O)N[C@@H](C)C(=O)N2CCC[C@@H]2C(=O)N(C)[C@@H](CC(C)C)C(=O)N[C@@H](C)C1=O [Compound B03] (cyclo(A[NEtG]L[dP][NMeL]A[Gly(N-CH2-oxan-4-yl)]A[dP][NMeL]))	mg/mL	1.900

Asked: Aq. Sol. for CCN1CC(=O)N[C@@H](CC(C)C)C(=O)N2CCC[C@@H]2C(=O)N(C)[C@@H](CC(C)C)C(=O)N[C@@H](C)C(=O)N(CC2CCOCC2)CC(=O)N[C@@H](Cc2ccccc2)C(=O)N2CCC[C@@H]2C(=O)N(C)[C@@H](CC(C)C)C(=O)N[C@@H](C)C1=O [Compound B09] (cyclo(A[NEtG]L[dP][NMeL]A[Gly(N-CH2-oxan-4-yl)]F[dP][NMeL])) ?
Given back: 2.200
